- Test system: ATP;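 further: ATP exposure 15 min at 22 °C before imaging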
- experiment-description: switch fluorescence ratio, 500 uM ATP over buffer (Cy3 cluster intensity, sum of 5 cycles each) (fold (ratio)); higher = stronger signal-on switching upon ATP binding; sequences stand for … in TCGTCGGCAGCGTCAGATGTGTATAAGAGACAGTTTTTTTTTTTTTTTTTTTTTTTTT…TC
- condition-label: aptamer strand: ATP DNA aptamer (quencher-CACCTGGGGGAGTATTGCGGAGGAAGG + anchor), 100 nM annealed; ATP concentration: 500 uM
quantity-kind: switch fluorescence ratio
Give bare numbers.

Okay, here is my list. What is switch fluorescence ratio for each of these?
1. AGGGGGATTT
2. GAGGACTAGG
3. TTTGTTGCA

Solution:
[0.999, 1.01, 1.02]

Okay, here is my list. What is switch fluorescence ratio for each of these?
1. TCTGATTTGG
2. ATGGACTGAA
3. TGTTTAGTTT
4. TTTAATTCT
5. ATGTGGCGTC

Solution:
0.978
0.992
1.01
0.989
1.01
